# procedure-text: reducers of endogenous Her2 protein level, primary screen, SKBR3 breast tumor cells, AlphaScreen, ATP viability (AID 461);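 further: percent of carrier control wells set as 100% viability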
# measurement-parameters: 18-24 h, measured here: SKBR3 viability, ATP luminescence, at 10 µM
parameter-measured: viability (%)
Give bare numbers, in %.

Known results for compounds:
compound	viability (%)
CCOC(=O)C1CCCN(CCC(C)c2ccccc2)C1 (stereo unspecified)	94
COc1ccccc1C(=O)Nc1ccc(S(=O)(=O)N2CCOCC2)cc1	104
COC(=O)C1CCN(C(=O)NC(C)(C)C)CC1	110
CCOC(=O)CSc1nc2c(c(-c3ccc(C)o3)c1C#N)CCCC2	89.5
COc1ccc(OCC(O)Cn2c(Br)nc3c2c(=O)[nH]c(=O)n3C)cc1 (stereo unspecified)	84
CC(C)C(=O)Nc1nnc(CCc2nnc(NC(=O)C(C)C)s2)s1	99

Would you mind giving viability for every compound in the list below?
1. CCOC(=O)Cn1nnnc1C(C(C)C)N(Cc1cc2c(C)cc(C)cc2[nH]c1=O)C1CCCC1 (stereo unspecified)
2. CCOC(=O)CNC(=O)CSc1ncnc2c1cnn2-c1ccccc1
3. Cc1ccc(CN2C(=O)CCC2C(=O)NC2CCCC2)cc1 (stereo unspecified)
4. c1cnc2c(SCc3ccc(-c4nnco4)cc3)cccc2c1
5. CCCCOC(=O)n1c(SCC(=O)N(CC)CC)nc2ccccc21

Reply:
[98, 87.5, 132, 98.5, 86]

Sourced from PubChem BioAssay
